Please go through the items and note down their TGI.
test system: UACC-257 melanoma; experiment: NCI tumour cell line growth inhibition, 48 h

Consider the worked cases shown below.
| compound | result.value |
| --- | --- |
| Fc1cccc(COc2ccc(Nc3ncnc4cc(-c5ccc[nH]5)sc34)cc2Cl)c1 | > 25 µM |
| O=c1oc2ccccc2n1CCN1CCCCC1 | > 100 µM |
| C[C@H]1[C@H](C)CC[C@]2(C(=O)O)CC[C@]3(C)C(=CC[C@@H]4[C@@]5(C)C/C(=C/c6cccnc6)[C@H](O)C(C)(C)[C@@H]5CC[C@]43C)[C@H]12 | 81.2 µM |

Batch: TGI for all items listed.
1. S=c1[nH]c2ccc(Br)cc2c(=S)n1-c1ccccc1
2. CCC(C)C(=O)c1c(O)c(C/C=C(\C)CCC=C(C)C)c(O)c2c(C(O)CC)cc(=O)oc12 (stereo not given)
3. COCc1cc2c(cc1/C=C/[N+](=O)[O-])OCO2
4. CC[n+]1c(/C=C/c2ccc(N(CCCl)CCCl)cc2)ccc2cc(NC(=O)/C=C/c3ccccc3)ccc21
5. CC(=O)Nc1ccc2c(c1)oc(=O)c1cc(NC(C)=O)ccc12
6. Nc1nc2c(c(=O)[nH]1)CN(c1ccc(S(N)(=O)=O)cc1)CN2
7. CNC(=S)N/N=C/c1cccc(C)n1

Marked response:
1. 36.9 µM
2. 6.84 µM
3. 30.8 µM
4. 1.13 µM
5. > 100 µM
6. > 100 µM
7. > 100 µM

----------
test system: K-562 leukemia; test: NCI tumour cell line growth inhibition, 48 h; in the data active = GI50 below about 0.43 µM; inactive = the rest
Give your call using only these classes: 1 for active, 0 for inactive

Observe how each entry below is paired with its result.
| compound | cat |
| --- | --- |
| COc1cc[nH]c1/C=C1\C(=O)Nc2ccc(F)c(I)c21 | 0 |
| Cc1cc(C(C#N)c2ccc(Cl)cc2)c(Cl)cc1NC(=O)c1cc(I)cc(I)c1O (stereo unspecified) | 0 |
| COC(=O)CNC(=O)[C@@H](OC)[C@@H]1Cc2cc3cc(OC4CC(OC5CC(O)C(O)C(C)O5)C(O)C(C)O4)c(C)c(O)c3c(O)c2C(=O)[C@H]1OC1CC(OC2CC(OC3CC(C)(O)C(O)C(C)O3)C(O)C(C)O2)C(O)C(C)O1 (stereo partly specified) | 1 |

Exam item: What classification did `CN(C)C(=S)N=Nc1c(O)[nH]c2ccccc12` end up with in this test?
Marked response: 0

Exam item: Which outcome was assigned to `Fc1cccc(COc2ccc(Nc3ncnc4cc(-c5ccc[nH]5)sc34)cc2Cl)c1` in this test?
Marked response: 0

Exam item: What classification did `NC(C(=O)[O-])C(=O)[O-].NC1CCCCC1N.[Pt+4]` end up with in this test?
Marked response: 0

----------
test system: UO-31 renal; assay: NCI tumour cell line growth inhibition, 48 h
value.kind: TGI (µM)
Answers are plain numbers, in µM.

| smiles.record | result.value |
| --- | --- |
| CSc1ccc(/C=C2\N=C(c3ccccc3)N(c3nc4ccc(Sc5ccccc5)cc4[nH]3)C2=O)cc1 | 68.5 |
| CC(C)(C)c1ccc(S(=O)(=O)N[C@H]2CC[C@H]3[C@@H]4CCc5cc(OS(=O)(=O)O)ccc5[C@H]4CC[C@]23C)cc1 | 4.4 |

Here is the next item to consider.
Exam item: Return TGI (reported value) for this molecule: `COc1ccc(-c2cc(-c3cc(OC)c(OC)c(OC)c3)cc(-c3cc4ccccc4oc3=O)n2)cc1`
Marked response: 24.7

Reference source: PubChem BioAssay (NCI)
